# METHOD_SUMMARY: Renal clearance in cancer patient at 2 mg, iv administered as bolus infusion for 2 to 5 mins by LC-MS/MS analysis
# Format: ADME, organism-based, Kidney
# ASSAY_CONDITIONS: human, in vivo
OBSERVATION_TYPE: CL renal (mL/min)

COMPOUND	OBSERVATION_TYPE	NUMERIC_VALUE
C=C1C[C@@H]2CC[C@@]34C[C@H]5O[C@H]6[C@@H](O3)[C@H]3O[C@H](CC[C@@H]3O[C@H]6[C@H]5O4)CC(=O)C[C@@H]3[C@@H](OC)[C@@H](C[C@H](O)CN)O[C@H]3C[C@H]3O[C@@H](CC[C@@H]1O2)C[C@@H](C)C3=C.CS(=O)(=O)O [ERIBULIN MESYLATE]	CL renal	5

----------
# METHOD_SUMMARY: Drug excretion in patient urine assessed as unchanged compound level at 0.25 to 1.4 mg/m2 administered 1 hr, iv infusion after 72 hrs
# Type: ADME, organism-based
# ASSAY_CONDITIONS: human, read-out: Drug excretion
OBSERVATION_TYPE: dose excreted at 72 h (%)

MOLECULE	NUMERIC_VALUE
C=C1C[C@@H]2CC[C@@]34C[C@H]5O[C@H]6[C@@H](O3)[C@H]3O[C@H](CC[C@@H]3O[C@H]6[C@H]5O4)CC(=O)C[C@@H]3[C@@H](OC)[C@@H](C[C@H](O)CN)O[C@H]3C[C@H]3O[C@@H](CC[C@@H]1O2)C[C@@H](C)C3=C.CS(=O)(=O)O [ERIBULIN MESYLATE]	5

----------
# METHOD_SUMMARY: Drug excretion in patient urine assessed as unchanged compound at 0.25 to 4 mg/m2 administered 1 hr, iv infusion every 21 days after 72 hrs
# Format: ADME, organism-based
# ASSAY_CONDITIONS: human, read-out: Drug excretion
OBSERVATION_TYPE: dose excreted at 72 h (%)

COMPOUND	NUMERIC_VALUE
C=C1C[C@@H]2CC[C@@]34C[C@H]5O[C@H]6[C@@H](O3)[C@H]3O[C@H](CC[C@@H]3O[C@H]6[C@H]5O4)CC(=O)C[C@@H]3[C@@H](OC)[C@@H](C[C@H](O)CN)O[C@H]3C[C@H]3O[C@@H](CC[C@@H]1O2)C[C@@H](C)C3=C.CS(=O)(=O)O [ERIBULIN MESYLATE]	7

----------
# METHOD_SUMMARY: Terminal half life in breast cancer patient
# Format: ADME, organism-based
# ASSAY_CONDITIONS: human, in vivo; read-out: beta t1/2 (converted)
OBSERVATION_TYPE: half-life (h)

COMPOUND	UNIT_TAG	NUMERIC_VALUE
C=C1C[C@@H]2CC[C@@]34C[C@H]5O[C@H]6[C@@H](O3)[C@H]3O[C@H](CC[C@@H]3O[C@H]6[C@H]5O4)CC(=O)C[C@@H]3[C@@H](OC)[C@@H](C[C@H](O)CN)O[C@H]3C[C@H]3O[C@@H](CC[C@@H]1O2)C[C@@H](C)C3=C.CS(=O)(=O)O [ERIBULIN MESYLATE]	h	36
